Assay: Plasma pharmacokinetics of SU5416 and metabolites in Phase I patients (HPLC UV)
Format: in vivo, human
Details: human, plasma, iv, 110 mg m^−2, individual patients, twice weekly i.v. infusion, dose 110 mg m^−2, cycle 1inj2; read-out: Vz (observed)
Readout kind: Vd
// return the numeric value with its unit appended

Q: Please give the documented Vd of Cc1cc(C)c(/C=C2\C(=O)Nc3ccccc32)[nH]1
Result: 41 L

====

Assay: Plasma pharmacokinetics of SU5416 and metabolites in Phase I patients (HPLC UV)
Type: in vivo, human
Conditions: human, in vivo, iv, 145 mg m^−2, individual patients, twice weekly i.v. infusion, dose 145 mg m^−2, cycle 1inj8; read-out: T1/2λz (converted)
Readout kind: half-life (min)
Please give a number only; it is taken to be in min.

Q: Respond only with half-life recorded for Cc1cc(C)c(/C=C2\C(=O)Nc3ccccc32)[nH]1
Result: 34.2

====

Assay: Plasma pharmacokinetics of SU5416 and metabolites in Phase I patients (HPLC UV)
Type: in vivo, human
Conditions: human, in vivo, iv, 145 mg m^−2, individual patients, twice weekly i.v. infusion, dose 145 mg m^−2, cycle 2inj8; read-out: Vz (observed)
Readout kind: Vd (L)
Please reply with the bare figure in L and do not write the unit itself.

Q: Supply reported Vd belonging to this molecule: Cc1cc(C)c(/C=C2\C(=O)Nc3ccccc32)[nH]1
Result: 233

====

Test: Plasma pharmacokinetics of SU5416 and metabolites in Phase I patients (HPLC UV)
Type: in vivo, human
Settings: human, in vivo, iv, individual patients, twice weekly i.v. infusion, dose 145 → 190 mg m^−2, cycle 3inj2; read-out: CL (observed) (converted)
Readout kind: clearance (mL/min)
Kindly answer with a numeric value in mL/min, unit omitted.

Q: Supply recorded clearance for Cc1cc(C)c(/C=C2\C(=O)Nc3ccccc32)[nH]1 here.
Result: 733

====

Assay: Plasma pharmacokinetics of SU5416 and metabolites in Phase I patients (HPLC UV)
Type: in vivo, human
Settings: human, plasma, iv, 85 mg m^−2, individual patients, twice weekly i.v. infusion, dose 85 mg m^−2, cycle 2inj8; read-out: Cmax
Readout kind: Cmax
Field: value (include unit after the number)

Q: Read the entry Cc1cc(C)c(/C=C2\C(=O)Nc3ccccc32)[nH]1 and write its reported Cmax.
Result: 2800 ng/mL

====

Experiment: Plasma pharmacokinetics of SU5416 and metabolites in Phase I patients (HPLC UV)
Type: in vivo, human
Conditions: human, plasma, iv, 65 mg m^−2, individual patients, twice weekly i.v. infusion, dose 65 mg m^−2, cycle 1inj8; read-out: T1/2λz (converted)
Readout kind: half-life (min)
# number only, unit min dropped from output

Q: Tell me its half-life given Cc1cc(C)c(/C=C2\C(=O)Nc3ccccc32)[nH]1 [SU5416] as the entry.
Result: 43.8

====

Assay: Plasma pharmacokinetics of SU5416 and metabolites in Phase I patients (HPLC UV)
Assay type: in vivo, human
Details: human, in vivo, iv, 145 mg m^−2, individual patients, twice weekly i.v. infusion, dose 145 mg m^−2, cycle 1inj8; read-out: Cmax
Readout kind: Cmax (ng/mL)
Kindly provide the numeric value in ng/mL only, without the unit symbol.

Q: Tell me its Cmax given Cc1cc(C)c(/C=C2\C(=O)Nc3ccccc32)[nH]1 as the entry.
Result: 3920

====

Assay: Plasma pharmacokinetics of SU5416 and metabolites in Phase I patients (HPLC UV)
Assay type: in vivo, human
Settings: human, in vivo, iv, individual patients, twice weekly i.v. infusion, dose 145 → 190 mg m^−2, cycle 2inj1; read-out: CL (observed) (converted)
Readout kind: clearance (mL/min)
Number only, in mL/min; omit the unit.

Q: Identify clearance associated with the compound Cc1cc(C)c(/C=C2\C(=O)Nc3ccccc32)[nH]1
Result: 817

====

Assay: Plasma pharmacokinetics of SU5416 and metabolites in Phase I patients (HPLC UV)
Format: in vivo, human
Details: human, in vivo, iv, individual patients, twice weekly i.v. infusion, dose 145 → 190 mg m^−2, cycle 2inj8
Readout kind: AUC(0-t) (ng·h/mL)
A number alone suffices; assume ng·h/mL.

Q: Entry Cc1cc(C)c(/C=C2\C(=O)Nc3ccccc32)[nH]1 [SU5416] needs its AUC(0-t) filled in; supply it.
Result: 5040

====

Assay: Plasma pharmacokinetics of SU5416 and metabolites in Phase I patients (HPLC UV)
Type: in vivo, human
Conditions: human, plasma, iv, 65 mg m^−2, individual patients, twice weekly i.v. infusion, dose 65 mg m^−2, cycle 1inj2; read-out: T1/2λz (converted)
Method: Samples were taken prior to treatment infusion, 15 min into the infusion, at completion of the infusion and then at 5, 10, 20, 30, 45, 60, 120 and 240 min following the infusion. […] Pharmacokinetic analysis was performed using a fully validated HPLC UV method ([Stopeck et al, 2002]). […] Following centrifugation, drying and reconstitution in 200 μl mobile phase, 20 μl were analysed by HPLC UV. […] Pharmacokinetic parameters were evaluated using WinNonLin Software®.
Readout kind: half-life
Please state the number and follow it with the unit.

Q: Return value of half-life for input Cc1cc(C)c(/C=C2\C(=O)Nc3ccccc32)[nH]1 [SU5416] , no commentary.
Result: 27 min

====

Experiment: Plasma pharmacokinetics of SU5416 and metabolites in Phase I patients (HPLC UV)
Type: in vivo, human
Settings: human, plasma, iv, 48 mg m^−2, individual patients, twice weekly i.v. infusion, dose 48 mg m^−2, cycle 1inj8; read-out: Cmax
Procedure: Samples were taken prior to treatment infusion, 15 min into the infusion, at completion of the infusion and then at 5, 10, 20, 30, 45, 60, 120 and 240 min following the infusion. […] Pharmacokinetic analysis was performed using a fully validated HPLC UV method ([Stopeck et al, 2002]). […] Following centrifugation, drying and reconstitution in 200 μl mobile phase, 20 μl were analysed by HPLC UV. […] Pharmacokinetic parameters were evaluated using WinNonLin Software®.
Readout kind: Cmax (ng/mL)
Write the value in ng/mL as a bare number.

Q: Consider the molecule Cc1cc(C)c(/C=C2\C(=O)Nc3ccccc32)[nH]1 and give its recorded Cmax.
Result: 2060

====

Test: Plasma pharmacokinetics of SU5416 and metabolites in Phase I patients (HPLC UV)
Type: in vivo, human
Settings: human, in vivo, iv, 48 mg m^−2, individual patients, twice weekly i.v. infusion, dose 48 mg m^−2, cycle 1inj8
Readout kind: AUC(0-t) (ng·h/mL)
# unit: ng·h/mL | format: bare number

Q: Identify measured AUC(0-t) associated with Cc1cc(C)c(/C=C2\C(=O)Nc3ccccc32)[nH]1
Result: 816

====

Experiment: Plasma pharmacokinetics of SU5416 and metabolites in Phase I patients (HPLC UV)
Type: in vivo, human
Details: human, plasma, iv, 48 mg m^−2, individual patients, twice weekly i.v. infusion, dose 48 mg m^−2, cycle 1inj8; read-out: Vz (observed)
Readout kind: Vd (L)
// units = L; emit number, no label

Q: Read off the recorded Vd for Cc1cc(C)c(/C=C2\C(=O)Nc3ccccc32)[nH]1
Result: 109

====

Experiment: Plasma pharmacokinetics of SU5416 and metabolites in Phase I patients (HPLC UV)
Type: in vivo, human
Details: human, in vivo, iv, 145 mg m^−2, individual patients, twice weekly i.v. infusion, dose 145 mg m^−2, cycle 1inj2; read-out: T1/2λz (converted)
Readout kind: half-life (min)
Use min as the unit, but write only the number.

Q: Please supply the value of reported half-life for the item Cc1cc(C)c(/C=C2\C(=O)Nc3ccccc32)[nH]1
Result: 52.2

====

Assay: Plasma pharmacokinetics of SU5416 and metabolites in Phase I patients (HPLC UV)
Format: in vivo, human
Conditions: human, plasma, iv, 85 mg m^−2, individual patients, twice weekly i.v. infusion, dose 85 mg m^−2, cycle 1inj2; read-out: T1/2λz (converted)
Readout kind: half-life (min)
Please reply with the bare figure in min and do not write the unit itself.

Q: Note half-life for the compound shown: Cc1cc(C)c(/C=C2\C(=O)Nc3ccccc32)[nH]1
Result: 23.4

====

Experiment: Plasma pharmacokinetics of SU5416 and metabolites in Phase I patients (HPLC UV)
Assay type: in vivo, human
Settings: human, plasma, iv, 65 mg m^−2, individual patients, twice weekly i.v. infusion, dose 65 mg m^−2, cycle 1inj8
Readout kind: AUC(0-t) (ng·h/mL)
Write the value in ng·h/mL as a bare number.

Q: Give recorded AUC(0-t). Cc1cc(C)c(/C=C2\C(=O)Nc3ccccc32)[nH]1 [SU5416]
Result: 1310

====

Assay: Plasma pharmacokinetics of SU5416 and metabolites in Phase I patients (HPLC UV)
Assay type: in vivo, human
Conditions: human, in vivo, iv, individual patients, twice weekly i.v. infusion, dose 145 → 190 mg m^−2, cycle 3inj2; read-out: T1/2λz (converted)
Readout kind: half-life (min)
Report only the number, with the unit min understood.

Q: Output half-life of Cc1cc(C)c(/C=C2\C(=O)Nc3ccccc32)[nH]1 [SU5416]
Result: 45
